Tested on: L1210 leukemia ip in BDF1 mice, survival T/C
Assay: NCI In Vivo Anticancer Drug Screen. Data for tumor model L1210 Leukemia (intraperitoneal) in B6D2F1 (BDF1) mice
Conditions: endpoint: mean survival time; dose: 50.0 mg/kg/injection; schedule: Q01DX009 (ip); vehicle: saline; higher = longer survival
Inconclusive results and toxic doses are left out.
measured_quantity: T/C

// below: answered compounds
compound	system_tested	result
CCOC(=O)c1cnc(C)[nH]c1=O	L1210 leukemia ip in BDF1 mice, survival T/C	94 % of control
CC(=O)OC12C=C(C)C(C3C(=O)OC(=O)C31)C(C)(C)C2 (stereo not drawn)	L1210 leukemia ip in BDF1 mice, survival T/C	97 % of control
C[N+](C)(C)CCOC(=O)c1cc(CBr)cc(CBr)c1	L1210 leukemia ip in BDF1 mice, survival T/C	95 % of control
NC(=S)Nc1ccc(C23CCC(CC2)CC3)cc1	L1210 leukemia ip in BDF1 mice, survival T/C	105 % of control
C=CCSCC(=O)Cl	L1210 leukemia ip in BDF1 mice, survival T/C	100 % of control

# get_value(readout= T/C, system= L1210 leukemia ip in BDF1 mice, survival T/C) for `CC(C)(CCC(C)(C)NCCC#N)NCCC#N`
104 % of control

Please state recorded T/C (tested on L1210 leukemia ip in BDF1 mice, survival T/C) of `CN(C)P(=O)(N(C)C)N(C)C.[Cl][Al]([Cl])[Cl]`
91 % of control

What measured T/C is associated with `NC(=O)/C=C\C(N)=O` on L1210 leukemia ip in BDF1 mice, survival T/C?
103 % of control

Provide value of T/C for this record tested with L1210 leukemia ip in BDF1 mice, survival T/C: `O=S(=O)(O)c1ccccc1O`
98 % of control

Given the entry `[N-]=[N+]=Nc1ccc(-c2nc(N)nc(N)n2)cc1` , what T/C was observed with L1210 leukemia ip in BDF1 mice, survival T/C?
90 % of control

So what T/C did C=C(C)C1(O)C=CC(=O)O1 (stereo not drawn) get with L1210 leukemia ip in BDF1 mice, survival T/C?
107 % of control

Can you look up T/C on L1210 leukemia ip in BDF1 mice, survival T/C for CN(C)CCC1CCCCN1 (stereo not drawn) ?
95 % of control

So what T/C did `c1ccc(Nc2ncc3cnccn23)cc1` get with L1210 leukemia ip in BDF1 mice, survival T/C?
90 % of control

Hi! What's the reported T/C for `CCN(CC)CCC(CCN(CC)CC)(CNC(=O)CN(CC)CC)c1cccc2ccccc12` on L1210 leukemia ip in BDF1 mice, survival T/C?
108 % of control

Give T/C (L1210 leukemia ip in BDF1 mice, survival T/C) of the following compound: `O=S(=O)(O)c1ccc(/C2=c3\cc/c([n-]3)=C(\c3ccc(S(=O)(=O)O)cc3)c3ccc([n-]3)/C(c3ccc(S(=O)(=O)O)cc3)=c3/cc/c([n-]3)=C(\c3ccc(S(=O)(=O)O)cc3)c3ccc2[n-]3)cc1.[Co]`
97 % of control

Give L1210 leukemia ip in BDF1 mice, survival T/C T/C for C#CC(O)(/C=C\Cl)CC (stereo not drawn)
94 % of control

Form field - read-out: T/C; system: L1210 leukemia ip in BDF1 mice, survival T/C; submitted item: `O=P(CCCl)(CCCl)CCCl`
87 % of control

Short answer please: T/C, L1210 leukemia ip in BDF1 mice, survival T/C, entry `CCCCOCCN`
106 % of control
